- assay-target: human GluN1/GluN2B NMDA receptors (Homo sapiens, UniProt Q13224)
- Construct: expressed in transfected cells
- Sequence (Q13224 27-1484, other chains not shown): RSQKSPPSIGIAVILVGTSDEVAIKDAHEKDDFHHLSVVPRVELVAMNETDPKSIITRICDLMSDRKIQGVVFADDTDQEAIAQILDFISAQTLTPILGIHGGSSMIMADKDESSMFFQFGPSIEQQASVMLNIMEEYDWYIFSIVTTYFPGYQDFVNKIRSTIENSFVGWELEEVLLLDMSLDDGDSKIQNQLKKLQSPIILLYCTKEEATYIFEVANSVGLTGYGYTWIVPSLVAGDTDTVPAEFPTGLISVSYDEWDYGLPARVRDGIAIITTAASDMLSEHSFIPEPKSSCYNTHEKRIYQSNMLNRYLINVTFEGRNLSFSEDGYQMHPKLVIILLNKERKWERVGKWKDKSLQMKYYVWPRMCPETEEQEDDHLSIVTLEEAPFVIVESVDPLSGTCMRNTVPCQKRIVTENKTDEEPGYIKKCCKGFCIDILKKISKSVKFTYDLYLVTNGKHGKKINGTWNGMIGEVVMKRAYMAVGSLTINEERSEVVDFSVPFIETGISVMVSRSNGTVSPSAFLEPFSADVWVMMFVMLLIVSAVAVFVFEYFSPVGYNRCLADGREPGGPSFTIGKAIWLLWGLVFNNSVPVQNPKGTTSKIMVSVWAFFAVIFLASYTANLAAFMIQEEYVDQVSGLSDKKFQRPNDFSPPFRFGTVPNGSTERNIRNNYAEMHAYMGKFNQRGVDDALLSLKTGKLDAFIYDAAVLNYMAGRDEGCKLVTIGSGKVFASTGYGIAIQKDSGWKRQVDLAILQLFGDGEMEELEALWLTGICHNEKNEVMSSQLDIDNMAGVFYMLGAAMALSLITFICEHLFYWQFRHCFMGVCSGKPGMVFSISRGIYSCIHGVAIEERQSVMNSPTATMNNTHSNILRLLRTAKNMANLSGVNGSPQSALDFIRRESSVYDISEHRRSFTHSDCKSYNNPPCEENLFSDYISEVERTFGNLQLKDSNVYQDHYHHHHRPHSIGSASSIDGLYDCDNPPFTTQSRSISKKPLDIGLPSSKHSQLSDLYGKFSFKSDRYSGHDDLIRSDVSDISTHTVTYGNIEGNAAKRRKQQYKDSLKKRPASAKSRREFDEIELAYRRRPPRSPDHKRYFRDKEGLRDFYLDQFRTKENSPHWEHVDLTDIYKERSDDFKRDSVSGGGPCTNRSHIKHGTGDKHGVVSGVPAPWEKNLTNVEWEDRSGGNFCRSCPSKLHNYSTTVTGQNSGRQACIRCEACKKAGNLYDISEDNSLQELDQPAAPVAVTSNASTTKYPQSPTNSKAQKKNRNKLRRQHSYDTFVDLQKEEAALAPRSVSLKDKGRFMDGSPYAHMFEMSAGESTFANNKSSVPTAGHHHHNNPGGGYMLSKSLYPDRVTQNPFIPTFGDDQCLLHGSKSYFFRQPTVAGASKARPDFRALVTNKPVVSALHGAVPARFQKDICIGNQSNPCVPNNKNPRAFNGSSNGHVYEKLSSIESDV
- assay-text: Cell-based calcium flux (FLIPR) assay on cloned human NR1/NR2B ion channels expressed in mammalian cells (standard and HTS buffer variants)
- measurement-conditions: standard assay buffer (0.5 mM MgCl2 in dye loading buffer; 137 mM NaCl, 4 mM KCl in assay buffer), human GluN1/GluN2B, read-out: NR2B IC50 (μM) standard assay
parameter: IC50 (µM)

Illustrative cases are given below, each with its answer.
smiles_entry=Cn1c(=O)n(CC(=O)N2CC(F)(F)C2)c2cc(-c3ccc(Cl)c(OC(F)F)c3)cnc21 parameter=IC50 experimental_value=0.082
smiles_entry=CCOc1ccccc1-c1cnc2[nH]c(=O)n(Cc3ccccc3C#N)c2c1 parameter=IC50 experimental_value=1.39
smiles_entry=Cc1c(F)ccc(-c2cnc3c(c2)n(CC(=O)N2CC(F)C2)c(=O)n3C)c1F parameter=IC50 experimental_value=0.017
smiles_entry=O=C(Cn1c(=O)[nH]c2ncc(-c3cccc(C(F)(F)F)c3)cc21)N1CC(CCF)C1 parameter=IC50 experimental_value=0.163

(A) Cc1c(F)ccc(-c2cnc3c(c2)n(Cc2cccnc2)c(=O)n3C)c1F
(B) Cn1c(=O)n(Cc2cncc(Cl)c2)c2cc(-c3ccc(F)c(F)c3)cnc21
[in] Of A versus B , which is the one with smaller reported IC50? Which one? Tell me its label.
[out] A

(I) Cc1c(F)ccc(-c2cnc3c(c2)n(CC(=O)N2CCC2)c(=O)n3C)c1F
(II) COc1ccc(-c2cnc3[nH]c(=O)n(CC(=O)c4cccs4)c3c2)cc1F
(III) Cn1c(=O)n(Cc2cncc(F)c2)c2cc(-c3cccc(Cl)c3)cnc21
[in] Give the ascending ranking of the items by reported IC50. // format: requested-order list of labels
[out] I, III, II
(I: 0.008 µM, III: 0.213 µM, II: 0.33 µM)

(1) Cc1cc(-c2cnc3[nH]c(=O)n(CC(=O)N(C)C)c3c2)sc1Cl
(2) Cn1c(=O)n(Cc2csnn2)c2cc(-c3cccc(C(F)(F)F)c3)cnc21
[in] Of 1 versus 2 , which is the one with smaller reported IC50? Which one? Tell me its label.
[out] 1

(a) CCC(=O)Cn1c(=O)[nH]c2ncc(-c3ccc(F)c(C)c3)cc21
(b) Cn1c(=O)n(Cc2cccnc2)c2cc(-c3ccc(F)c(C(F)(F)F)c3)cnc21
[in] Among a and b , which shows a numerically higher IC50 result? Which one? Tell me its label.
[out] b

(a) Cc1cc(-c2cnc3c(c2)n(CC(=O)N(C)C)c(=O)n3C)ccc1F
(b) CN(C)C(=O)Cn1c(=O)n(C)c2ncc(-c3ccc(F)c(C(F)F)c3)cc21
[in] Of a versus b , which is the one with smaller reported IC50? Which one? Tell me its label.
[out] a

---

- assay-target: human GluN1/GluN2B NMDA receptors (Homo sapiens)
- Construct: expressed in transfected cells
- assay-text: Cell-based calcium flux (FLIPR) assay on cloned human NR1/NR2B ion channels expressed in mammalian cells (standard and HTS buffer variants);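 further: stable Tet-On inducible cell line, Ca2+ influx triggered by glutamate at about EC40 plus 10 µM glycine, fluorescent dye read-out over 5 min, normalized to control wells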
- measurement-conditions: standard assay buffer (0.5 mM MgCl2 dye loading; 137 mM NaCl, 4 mM KCl assay buffer), human GluN1/GluN2B cells, read-out: NR2B IC50 (μM) standard assay
parameter: IC50 (µM)

smiles_entry=Cn1c(=O)n(CC(=O)N2CC(F)C2)c2cc(-c3cccc(C(F)(F)F)c3)cnc21 parameter=IC50 unit_abbrev=µM experimental_value=0.065

(A) O=c1[nH]c2ncc(-c3ccccc3)cc2n1CCN1CCCC1
(B) Cc1cncc(Cn2c(=O)[nH]c3ncc(-c4ccc(F)c(C)c4F)cc32)c1
[in] Of A versus B , which is the one with smaller reported IC50? Which one? Tell me its label.
[out] B
